Experiment: yeast display, Sf9 membrane polyspecificity reagent, FACS + sequencing; frameworks hold sequencing errors
Readout kind: polyreactivity (PSR sort gate)

{"Primary sequence": "QVQLVESGGGLVQAGGSLRLSCAASGRIFSYYAMGWYRHAPWKERELVAAISRSGAKTYYADSVKGRFTISRDNAKNSVYLQMNSLKPEDTAVYYCNADTLRRRYNYWGQGTQVTVSS", "Result value": "high polyreactivity"}
{"Primary sequence": "QVQLVESGGGLVQAGGSLRLSCAASGITFYGYTMGWYRQAPGKERELVAAITSGGITYYADSVKGRFTISRDNAKNTVYLQMNSLKPEDTAVYYCNADDVWYEYDYWGEGTQVTVSS", "Result value": "high polyreactivity"}

---

Experiment: yeast display, Sf9 membrane polyspecificity reagent, FACS + sequencing; frameworks hold sequencing errors
Readout kind: polyreactivity (PSR sort gate)

{"Primary sequence": "QVQLVESGGGLVQAGGSLRLSCAASGRIYTRNTMGWYRQAPGKERELVAAITSRGGSTYYADSVKGRFTISRDNAKNTVYLQMNSLKPEDTAVYYCAADKPRSYYYWGLGTQVTVSS", "Result value": "high polyreactivity"}
{"Primary sequence": "QVQLVETGGGIVQAGGSLRLSCASSGRTFNKYAMGRYRKAPGKERELVAAINYSGGRTDYADSVKGRFTISRDNAKNTVYLQMNSLKPDDTAVYYCAASPTFFVWQGYNYWGQGTQVTVSS", "Result value": "low polyreactivity"}
{"Primary sequence": "QVQLVESGGGLVQAGGSLRLSCAASGSTLEYYAMGWYRQAPGKERELVAAISSGGSTNYADSVKGRFTISRDNAKNTVYLQMNSLKTEDTAVYYCAAERYYRFVYTCYDYWGQGTQVTVSS", "Result value": "high polyreactivity"}
{"Primary sequence": "QVQLVESGGGLVQAGGSLGLSCAASGSTFQFYAMGWNRQAPGKERELVAAISWSSGSTYYADSVKGRFTISRDNAKNSVYLQMNSLKPEHTAVYYCNARYPWSYRYWDGGYWGQGTQVTVSS", "Result value": "low polyreactivity"}
{"Primary sequence": "QVQLVESGGGLVQAGGSLRLSCAASGSIFVPYGMGWYRKAPGTDRELVAAITFRTTSTYYADSVKGRFTISRDNAKNTVYLQMNSLKPEDTAVYYCNKGDYRTYPYDYWGQGTQVTVSS", "Result value": "low polyreactivity"}
{"Primary sequence": "QVQLVESGGGLVQAGGSLRLSCAASGRIFTYNAMGWYRQAPGKERELDATITWRGGGTYYADSVKGRFTISRDNAKNTVYLQMNSLKPEDTAVYYCNRRLPGDGQYGYRRYDYWGQGTQVTVSS", "Result value": "low polyreactivity"}
{"Primary sequence": "QVQLVESGGGLVQAGGSLRLSCAASGRNFSANAMGWYRQAPGKEREMVATISSGGRTNYADSVKGRFTISRDNAKNTVYVQMNSLKPEDTAVYYCAKRGPYNRWYGRYDYWGQGTQVTVSS", "Result value": "low polyreactivity"}
{"Primary sequence": "QVQLVESGGGLVQAGGSLRLSCAASGGIFDENAMGWYRQAPGKARELVAGITQRGASTNYADSVKGRFTISRDNAKNTVYLQMNSLKPEDTAVYYCDADVGTVISYEYWGQGTQVTVSS", "Result value": "low polyreactivity"}
{"Primary sequence": "QVQLVESGGGLVQAGGSLRLSCAASGRIFADNAMGWYRQAPGKERELVADITYSGGSTYYADSVKGRFTISRDNAKNTVYLQMNSLKPEDTAVYSCAKQGVDYWGQGTQVTVSS", "Result value": "low polyreactivity"}
{"Primary sequence": "QVQLVESGGGLVQAGGSLRLSCAASGSIFGDNAMGWYRQAPGKERELVAAITTGASRTYYADSVKGRFTISRDNAKNTVYLQMNSLKPEDTAVYYCNASDPSWREYDYWGQGTQVIVSS", "Result value": "low polyreactivity"}
{"Primary sequence": "QVQLVESGGGLVQAGGSLRLSCAASGLIFGSYAMGWYRQAPGKEMELVAAISWSGGSTNYADSVKGRFTISRDNSKNTVDLQMNSLKPEDTAVYYCAARGYPLGIGRIKRNYWGQGTQVTVSS", "Result value": "high polyreactivity"}

---

Experiment: yeast display, Sf9 membrane polyspecificity reagent, FACS + sequencing; frameworks hold sequencing errors

{"Primary sequence": "QVQLVESGGGLVQAGGSLRLSCAASGSIFYHNAMGWYRQAPGKERELVAAISYRTGRTYYADSVKGRFTISRDNAKNTVYLQMNSLKPEDTAVYYCAAPYSWGQGTQVTVSS", "polyreactivity (PSR sort gate)": "high polyreactivity"}
{"Primary sequence": "QVQLVESGGGLVQAGGSLRLSCAASGRTFAGYAMGWYRQAPGKERELVAAITNGGSTKYADSVKGRFTISRDNAKNTVYLQMNSLKPEDTAVYYCNARKRFYSGNTLMYYWGQGTQVTLSS", "polyreactivity (PSR sort gate)": "high polyreactivity"}
{"Primary sequence": "QVQLVESGGGLVQAGGSLRLSCAASGITLLGNAMGWYRQAPGTERELVAAISRRGGSTYYADSVKGRFTISRDNAKNTVYLQMNSLKPEDTAVYYCAADRYTVVYYRIFDYWGQGTQVTVSS", "polyreactivity (PSR sort gate)": "high polyreactivity"}
{"Primary sequence": "QVQLVESGGGLVQAGGSLRLSCAASGRTFKVNAMGWYRQAPGKERELVAAITYSGGGTYYADSVKGRFTISRDNAKNTVYLQMNSLKPEDTAVYYCAAPVYTWYHRYDYWGQGTQVTVSS", "polyreactivity (PSR sort gate)": "high polyreactivity"}
{"Primary sequence": "QVQLVESGGGLVQAGGSLRLSCAASGRTFEQYAMGWYRQAPGKERELVAAISGSGGSTFYADSVKGRFTISRDNAKNTVYLQMNSLKPEDTAVYYCAVDAYPPFFYFTSVWFSYDYWGQGTQVTVSS", "polyreactivity (PSR sort gate)": "low polyreactivity"}
{"Primary sequence": "QVQLVESVGGLVQAGGSLRLSCAASGFTFSSYSMGWYRQAPGKERELVAAITISGGRTYYADSVKGRFTISRDNAKNTVYLQMNSLKPEDTAVYYCAARYVEGQNHYGYRGQGTQVTVSS", "polyreactivity (PSR sort gate)": "high polyreactivity"}
{"Primary sequence": "QVQLVESGGGLVQAGGSLRLSCAAYGRTFRLNAMGWYRQAPGKERELVAGIRVRAGTTYYADSVKGRFTISRDNAKNTVYLQMNSLKPEDTAVYYCAAESYSRSRKYDYWGQGTQVTVSS", "polyreactivity (PSR sort gate)": "high polyreactivity"}
{"Primary sequence": "QVQLVESGGGLVQAGGSLRLSCAASGLIFYYYAMGWYRQAPGKERELVAAITTGGGTYYADSVKGRFTISRDNAKNTVYLQMNILKPEATAVFYCAVYYRSYWGYEYWGQGTQVTVSS", "polyreactivity (PSR sort gate)": "high polyreactivity"}
{"Primary sequence": "QVQLVESGGGLVQAGGSLRLSCAAYGITFAYYVMGWYRQAPGKERELVAAISRSGSTYYADSVKGRFTISRDNAKITVYLQMNCLKPEDTAVYYCAVLYIRWYTYEYWGQGTQVTVSS", "polyreactivity (PSR sort gate)": "high polyreactivity"}
{"Primary sequence": "QVQLVESGGGLVQAGGSLRLSCAASGFTFWGYTMGWYRQAPGKERELVAAITSTGSTYYADSVKGRFTISRDNAKNTVYFLMNSLKPEDTAVYYCAATRGSSEYYYWGQGTQLTVSS", "polyreactivity (PSR sort gate)": "low polyreactivity"}
{"Primary sequence": "QVQLVESGGGLVQAGGSLRLSCAASGRIFYPYAMGWYREAPGKERELVAAITVRGGRTYYADSVKGRFTFSRDNAKNTVYLQMNSLKPEDTAVYYCAARRWGAYRHGYWGQGTQVTVSS", "polyreactivity (PSR sort gate)": "high polyreactivity"}

---

Assay: yeast display, Sf9 membrane polyspecificity reagent, FACS + sequencing; frameworks hold sequencing errors
Readout kind: polyreactivity (PSR sort gate)

{"Primary sequence": "QVQLVESGGRLFQAGGSLRLSCAASGRNFCRYVMGWYRQAPGKERELVATISSGGSTNYADSVKGRFTISRDNAKNTVYLQMNSMKTEVTAVYYSAAYIYDGFWVYPYYPYDYWGQGTQVTVSS", "Result value": "low polyreactivity"}
{"Primary sequence": "QVQLVASGGGLVQAGGSLRLSCAASGSTFTQNAMGWDRPAPGQEREVVAAISWSGARTYYADSVKGRFTISRHNAKNTVYLQMNSRKPEDPAVYDCNNYARKRGTTYDYWGHGTQVTVSS", "Result value": "high polyreactivity"}
{"Primary sequence": "QVQLVETGGCLVQAGCSLRLSCAASGIIFYEYAMGRYRQAPGKERELVAAIDWSGGSTYYADSVKGRFTISRDNAKNTVYLQMNRLKPEDSAVYYCAAQWAWVDYFGNWYASTYDYWGQGTQVTVSS", "Result value": "high polyreactivity"}
{"Primary sequence": "QVQLVESGGGLVQAGGSLRLSCAATGGTIYYYAMGWYRQAPGKERELVAAISTSGTSTYYADSVKGRFTISRDNAKNTVYLQMNSLKPEDTAVYYCAARGLRVSSRGYYWGQGTQVTVSS", "Result value": "high polyreactivity"}
{"Primary sequence": "QVQLVESGGGLVQAGGSLGLSCAASGRSFYFYAMGWYRQAPGKERELVAALSRGGGTNYADSVKGRFTLSRDNATNTVYLQMNSLKPEDTAVYDCAARPGPYWTVTFRSPKYYYWGQGTQVTVSS", "Result value": "high polyreactivity"}
{"Primary sequence": "QVQLVESGGGLVQAGGSLRLSCAASGSIFGNYAMGWYRQAPGKERELVAGISKSGGRTYYADSVKGRFTISRDNAKITVYLQMNRLKPEDTAVYYCNALVTRYQSLDRLGDYWGQGTQVTVSS", "Result value": "high polyreactivity"}
{"Primary sequence": "QVQLVESGGGLVQAGGSLRLSCAASGRTFDYNAMGWYRQAPGKERELVADISNGGTTSYADSVKGRFTISRDNAKNTVYLQMNSLKPEDTAVYYCATLYDWSSFANSYWYFGWEEDYWGQGTQVTVSS", "Result value": "low polyreactivity"}
{"Primary sequence": "QVQLVESGGGLVQAGGSLRLSCAASGYTFRTNVMGWYRQAPGKERELVAAISSDGSTNYADSVKGRFTISRDNAKNTVYLQMNSLKPEDTAVYYCAAPWTQILDYWGQGTQVTVSS", "Result value": "low polyreactivity"}
{"Primary sequence": "QVQLVESGGGLVQAGGSLRLSCAASGFTIWRYAMGWYRQAPWKARELVAAISRGGSTNYADSVKGRFTISRDNAKNTVYLQMNSLKPEDTAVYYCAASVQYRRLKKFYYWGQGTQVTVSS", "Result value": "high polyreactivity"}
{"Primary sequence": "QLQLVESGGGLVQAGGSLRLSSAASGRTFRWNAMGWYRQAPGKERELVAAISSGGSTYYADSVKGRFTISRDNAKNTVYLQMNSLKPEDTAVYYCAKTSFKYRWSYPVISMDYWGQGTQVTVSS", "Result value": "high polyreactivity"}
{"Primary sequence": "QVQIVESGGGLVQAGGSLRLSCSASGRIFVGNAMGWYRQAPGKERELVAAISQRGGSTYYADSVKGRFTISRDYAKNTVYFQMNSRKQDVTAVYSCNAACRRAATSIWSWYDHWGQGTQETVSS", "Result value": "low polyreactivity"}

Reference for the values: the nanobody polyreactivity screen of Harvey et al. (2022)
